From: patent US8288435B2

ASSAYED TARGET: human orexin-2 receptor (Homo sapiens, UniProt O43614)
Sequence (O43614 whole entry): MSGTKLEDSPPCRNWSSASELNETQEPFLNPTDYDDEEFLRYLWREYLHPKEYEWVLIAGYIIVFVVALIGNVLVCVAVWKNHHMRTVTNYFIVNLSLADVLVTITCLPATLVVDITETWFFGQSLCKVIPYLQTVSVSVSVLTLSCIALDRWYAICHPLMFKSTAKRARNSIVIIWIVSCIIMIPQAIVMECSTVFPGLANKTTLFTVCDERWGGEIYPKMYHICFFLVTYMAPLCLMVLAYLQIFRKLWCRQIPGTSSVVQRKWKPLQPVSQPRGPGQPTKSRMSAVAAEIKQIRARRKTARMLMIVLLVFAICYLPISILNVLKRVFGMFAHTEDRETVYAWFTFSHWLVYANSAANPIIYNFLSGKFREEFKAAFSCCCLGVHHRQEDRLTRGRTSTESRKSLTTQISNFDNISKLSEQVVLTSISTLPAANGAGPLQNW
PROCEDURE DETAILS: Intracellular calcium measurements (FLIPR), orexin receptor antagonistic activity, OX2
CONDITION SUMMARY: CHO cells expressing the human orexin-2 receptor, 10 nM orexin-A as agonist
READOUT TYPE: IC50 (nM)

{"SMILES TEXT": "O=C(NC[C@@H]1C[C@@H]2C[C@@H]2N1C(=O)c1ncsc1-c1cccc(Cl)c1)c1cccc2c1CCO2", "VAL": 102}

(P) O=C(c1nc(C2CC2)sc1-c1ccccc1)N1[C@H](CNc2ncc(Br)cn2)C[C@@H]2C[C@@H]21
(Q) Cc1nc(C(=O)N2[C@H](CNC(=O)c3cccc4cccnc34)C[C@@H]3C[C@@H]32)c(-c2ccccc2)s1
Task: # argmax over IC50 for candidates P and Q Pick one and reply with its label.
Output: Q
